Tested on: EMC-BAC-2
Assay: relative viability (nuclei count vs DMSO), 5 days (fraction); higher = more cells survive
Conditions: first compound 500 µM
TEST READOUT: relative viability
Please give the numeric answer without any surrounding text.

MOLECULE	VALUE OBSERVED
O=C(O)CCCCC(CCSCc1ccccc1)SCc1ccccc1 (stereo not given) [CPI-613] + O=C(c1cc(Cc2n[nH]c(=O)c3ccccc23)ccc1F)N1CCN(C(=O)C2CC2)CC1 [Olaparib] (partner 8 µM)	0.229

Exercise: Recorded relative viability for O=C(O)CCCCC(CCSCc1ccccc1)SCc1ccccc1 (stereo not given) [CPI-613] + CC(=O)Nc1cccc(-n2c(=O)n(C3CC3)c(=O)c3c(Nc4ccc(I)cc4F)n(C)c(=O)c(C)c32)c1 [Trametinib] (partner 0.02 µM) , please?
Key: 0.639

Exercise: Recorded relative viability for O=C(O)CCCCC(CCSCc1ccccc1)SCc1ccccc1 (stereo not given) [CPI-613] + CC1(C)CCC(c2ccc(Cl)cc2)=C(CN2CCN(c3ccc(C(=O)NS(=O)(=O)c4ccc(N[C@H](CCN5CCOCC5)CSc5ccccc5)c(S(=O)(=O)C(F)(F)F)c4)cc3)CC2)C1 [Navitoclax] (partner 0.5 µM) , please?
Key: 1.06

Exercise: Recorded relative viability for O=C(O)CCCCC(CCSCc1ccccc1)SCc1ccccc1 (stereo not given) [CPI-613] + CCNC(=O)c1noc(-c2cc(C(C)C)c(O)cc2O)c1-c1ccc(CN2CCOCC2)cc1 [Luminespib] (partner 0.01 µM) , please?
Key: 0.0424

Exercise: Recorded relative viability for O=C(O)CCCCC(CCSCc1ccccc1)SCc1ccccc1 (stereo not given) [CPI-613] + Nc1nc2[nH]cc(CCc3ccc(C(=O)N[C@@H](CCC(=O)O)C(=O)O)cc3)c2c(=O)[nH]1 [Pemetrexed] (partner 0.2 µM) , please?
Key: 0.349

###

Test system: NCI-H1355
Assay: relative viability (nuclei count vs DMSO), 5 days (fraction); higher = more cells survive
Settings: first compound 15.81 µM
Listed here are compounds together with their documented relative viability.
Please give the numeric answer without any surrounding text.

COMPOUND	relative viability
O=C(O)CCCCC(CCSCc1ccccc1)SCc1ccccc1 (stereo not drawn) [CPI-613] + COc1cccc2cc(-c3nc([C@H]4CC[C@H](C(=O)O)CC4)n4ncnc(N)c34)[nH]c12 [OSI-027] (partner 0.5 µM)	0.347
O=C(O)CCCCC(CCSCc1ccccc1)SCc1ccccc1 (stereo not drawn) [CPI-613] + CC(C)C[C@H](NC(=O)[C@H](Cc1ccccc1)NC(=O)c1cnccn1)B(O)O [Bortezomib] (partner 0.002 µM)	1.22

Could you now consider this next compound?
Exercise: Recorded relative viability for O=C(O)CCCCC(CCSCc1ccccc1)SCc1ccccc1 (stereo not drawn) [CPI-613] + Cc1nc(NC(=O)N2CCC[C@H]2C(N)=O)sc1-c1ccnc(C(C)(C)C(F)(F)F)c1 [Alpelisib] (partner 2 µM) , please?
Key: 0.813

###

Test system: NCI-H520
Experiment: relative viability (nuclei count vs DMSO), 5 days (fraction); higher = more cells survive
Conditions: first compound 0.02 µM
Listed here are compounds together with their documented relative viability.

Consider the worked cases shown below.
COMPOUND	relative viability
CC(=O)O[C@@]12CO[C@@H]1C[C@H](O)[C@@]1(C)C(=O)[C@H](O)C3=C(C)[C@@H](OC(=O)[C@H](O)[C@@H](NC(=O)OC(C)(C)C)c4ccccc4)C[C@@](O)([C@@H](OC(=O)c4ccccc4)[C@H]21)C3(C)C [Docetaxel] + Cc1nc(Nc2ncc(C(=O)Nc3c(C)cccc3Cl)s2)cc(N2CCN(CCO)CC2)n1 [Dasatinib] (partner 0.075 µM)	0.126
CC(=O)O[C@@]12CO[C@@H]1C[C@H](O)[C@@]1(C)C(=O)[C@H](O)C3=C(C)[C@@H](OC(=O)[C@H](O)[C@@H](NC(=O)OC(C)(C)C)c4ccccc4)C[C@@](O)([C@@H](OC(=O)c4ccccc4)[C@H]21)C3(C)C [Docetaxel] + COc1cccc2cc(-c3nc([C@H]4CC[C@H](C(=O)O)CC4)n4ncnc(N)c34)[nH]c12 [OSI-027] (partner 0.5 µM)	0.153
CC(=O)O[C@@]12CO[C@@H]1C[C@H](O)[C@@]1(C)C(=O)[C@H](O)C3=C(C)[C@@H](OC(=O)[C@H](O)[C@@H](NC(=O)OC(C)(C)C)c4ccccc4)C[C@@](O)([C@@H](OC(=O)c4ccccc4)[C@H]21)C3(C)C [Docetaxel] + Nc1nc2[nH]cc(CCc3ccc(C(=O)N[C@@H](CCC(=O)O)C(=O)O)cc3)c2c(=O)[nH]1 [Pemetrexed] (partner 0.2 µM)	0.159

Exercise: State its relative viability on NCI-H520: CC(=O)O[C@@]12CO[C@@H]1C[C@H](O)[C@@]1(C)C(=O)[C@H](O)C3=C(C)[C@@H](OC(=O)[C@H](O)[C@@H](NC(=O)OC(C)(C)C)c4ccccc4)C[C@@](O)([C@@H](OC(=O)c4ccccc4)[C@H]21)C3(C)C [Docetaxel] + N=C(N)NC(=N)NCCc1ccccc1 [Phenformin] (partner 250 µM)
Key: 0.148

###

System: NCI-H1395
Test: relative viability (nuclei count vs DMSO), 5 days (fraction); higher = more cells survive
Conditions: first compound 4 µM
Listed here are molecules together with their documented relative viability.
Please give the numeric answer without any surrounding text.

MOLECULE	VALUE OBSERVED
Cc1sc2c(c1C)C(c1ccc(Cl)cc1)=N[C@@H](CC(=O)OC(C)(C)C)c1nnc(C)n1-2 [JQ1] + O=C(CCCCCCC(=O)Nc1ccccc1)NO [Vorinostat] (partner 1 µM)	0.473

Could you now consider this next molecule?
Exercise: Recorded relative viability for Cc1sc2c(c1C)C(c1ccc(Cl)cc1)=N[C@@H](CC(=O)OC(C)(C)C)c1nnc(C)n1-2 [JQ1] + CC(=O)Nc1cccc(-n2c(=O)n(C3CC3)c(=O)c3c(Nc4ccc(I)cc4F)n(C)c(=O)c(C)c32)c1 [Trametinib] (partner 0.02 µM) , please?
Key: 0.578

###

System: NCI-H522
Experiment: relative viability (nuclei count vs DMSO), 5 days (fraction); higher = more cells survive
Details: first compound 2.53 µM
TEST READOUT: relative viability
Please give the numeric answer without any surrounding text.

Consider the worked cases shown below.
MOLECULE	relative viability
O=c1[nH]c2ccccc2n1C1CCN(CCCC(c2ccc(F)cc2)c2ccc(F)cc2)CC1 [Pimozide] + Nc1nc2[nH]cc(CCc3ccc(C(=O)N[C@@H](CCC(=O)O)C(=O)O)cc3)c2c(=O)[nH]1 [Pemetrexed] (partner 0.2 µM)	0.818
O=c1[nH]c2ccccc2n1C1CCN(CCCC(c2ccc(F)cc2)c2ccc(F)cc2)CC1 [Pimozide] + NC(=O)Nc1cc(-c2cccc(F)c2)sc1C(=O)N[C@H]1CCCNC1 [AZD7762] (partner 0.2 µM)	0.77
Cc1cnc(-c2cnc(NCCNc3ccc(C#N)cn3)nc2-c2ccc(Cl)cc2Cl)[nH]1 + O=C(c1cc(Cc2n[nH]c(=O)c3ccccc23)ccc1F)N1CCN(C(=O)C2CC2)CC1 [Olaparib] (partner 8 µM)	0.643

Could you now consider this next molecule?
Exercise: Recorded relative viability for O=c1[nH]c2ccccc2n1C1CCN(CCCC(c2ccc(F)cc2)c2ccc(F)cc2)CC1 [Pimozide] + CC(=O)c1c(C)c2cnc(Nc3ccc(N4CCNCC4)cn3)nc2n(C2CCCC2)c1=O [Palbociclib] (partner 0.5 µM) , please?
Key: 0.891

###

Test system: NCI-H596
Experiment: relative viability (nuclei count vs DMSO), 5 days (fraction); higher = more cells survive
Settings: first compound 5 µM
Field 'label' (enum: fulfilled / not fulfilled). Set to fulfilled when relative viability is strictly under 1; else not fulfilled.

MOLECULE	CATEGORY LABEL
O=C(O)CCCCC(CCSCc1ccccc1)SCc1ccccc1 (stereo not given) [CPI-613] + Cc1cc(Nc2cc(N3CCN(C)CC3)nc(Sc3ccc(NC(=O)C4CC4)cc3)n2)n[nH]1 [Tozasertib] (partner 0.1 µM)	not fulfilled

Exercise: Is 1 strictly greater than the molecule's reported relative viability? molecule: O=C(O)CCCCC(CCSCc1ccccc1)SCc1ccccc1 (stereo not given) [CPI-613] + Nc1nc2[nH]cc(CCc3ccc(C(=O)N[C@@H](CCC(=O)O)C(=O)O)cc3)c2c(=O)[nH]1 [Pemetrexed] (partner 0.2 µM)
Key: fulfilled

Exercise: Is 1 strictly greater than the molecule's reported relative viability? molecule: O=C(O)CCCCC(CCSCc1ccccc1)SCc1ccccc1 (stereo not given) [CPI-613] + O=C(c1cc(Cc2n[nH]c(=O)c3ccccc23)ccc1F)N1CCN(C(=O)C2CC2)CC1 [Olaparib] (partner 8 µM)
Key: fulfilled

Exercise: Is 1 strictly greater than the molecule's reported relative viability? molecule: O=C(O)CCCCC(CCSCc1ccccc1)SCc1ccccc1 (stereo not given) [CPI-613] + NC(=O)Nc1cc(-c2cccc(F)c2)sc1C(=O)N[C@H]1CCCNC1 [AZD7762] (partner 0.2 µM)
Key: not fulfilled

Hey, just so you know, these numbers are from the supplement of paper PMC10307832.
